The reported numbers originate from ChEMBL document CHEMBL3632513.

method.description: Selectivity ratio of IC50 for equine BuChE to IC50 for electric eel AChE
observable: Ratio IC50
Number only, please.

[in] // lookup Ratio IC50 for COc1cc2c(cc1OC)C(=O)C(C(=O)Nc1ccccc1Br)C2 (stereo unspecified)
[out] 28.3

[in] Which Ratio IC50 is reported for this compound? CCOc1cccc(NC(=O)C2Cc3cc(OC)c(OC)cc3C2=O)c1 (stereo unspecified)
[out] 5

[in] Fill in the blank: the reported Ratio IC50 of COc1cc2c(cc1OC)C(=O)C(C(=O)Nc1cccc(F)c1)C2 (stereo unspecified) is ____.
[out] 9.1

[in] What does the data say about its Ratio IC50? Entry: CCc1ccccc1NC(=O)C1Cc2cc(OC)c(OC)cc2C1=O (stereo unspecified)
[out] 7.3

[in] Dear colleague, I am looking for the recorded Ratio IC50 of the following compound: COc1cc2c(cc1OC)C(=O)C(C(=O)Nc1ccccc1Cl)C2 (stereo unspecified)
[out] 23.7

[in] Record request: Ratio IC50 value, item COc1ccc(NC(=O)C2Cc3cc(OC)c(OC)cc3C2=O)cc1 (stereo unspecified)
[out] 5.5

---

Kindly state IC50 for each of the entries shown.
method.description: Antioxidant activity assessed as DPPH scavenging activity at 10 to 60 ug/ml after 30 mins
Report the figure in µg/mL without appending any unit label.

[in] Could you share which IC50 value was measured for COc1ccc(NC(=O)C2Cc3cc(OC)c(OC)cc3C2=O)cc1 (centres undefined) ?
[out] 49.47

[in] Which IC50 reading was recorded for the compound CCOc1cccc(NC(=O)C2Cc3cc(OC)c(OC)cc3C2=O)c1 (centres undefined) ?
[out] 44.89

[in] Entry COc1cc2c(cc1OC)C(=O)C(C(=O)Nc1ccc(F)cc1)C2 (centres undefined) has what IC50?
[out] 54.96

[in] Look up IC50 for this compound: COc1cc2c(cc1OC)C(=O)C(C(=O)Nc1ccc(Cl)cc1)C2 (centres undefined)
[out] 56.76

[in] Data request, read-out IC50, for COc1cccc(NC(=O)C2Cc3cc(OC)c(OC)cc3C2=O)c1 (centres undefined)
[out] 38.94

[in] Can you share its IC50? I mean this compound: `Cc1c(C)c2c(c(C)c1O)CC[C@@](C)(CCC[C@H](C)CCC[C@H](C)CCCC(C)C)O2`
[out] 31.74

[in] IC50 lookup needed for COc1cc2c(cc1OC)C(=O)C(C(=O)Nc1ccc(C)cc1)C2 (centres undefined) , thanks.
[out] 67.82

[in] State the recorded IC50 for this entry: COc1cc2c(cc1OC)C(=O)C(C(=O)Nc1ccccc1C)C2 (centres undefined)
[out] 43.74

[in] For COc1cc2c(cc1OC)C(=O)C(C(=O)Nc1ccccc1F)C2 (centres undefined) , what is its reported IC50?
[out] 75.68

[in] GET /values?readout=IC50&item= COc1cc2c(cc1OC)C(=O)C(C(=O)Nc1cccc(Cl)c1)C2 (centres undefined)
[out] 76.32

[in] For the compound COc1cc2c(cc1OC)C(=O)C(C(=O)Nc1cccc(F)c1)C2 (centres undefined) , what IC50 is on record?
[out] 58.11

[in] # query: IC50 of entry COc1cc2c(cc1OC)C(=O)C(C(=O)Nc1ccccc1)C2 (centres undefined)
[out] 61.28

[in] IC50 lookup needed for COc1cc2c(cc1OC)C(=O)C(C(=O)Nc1ccc(Br)cc1)C2 (centres undefined) , thanks.
[out] 72.14

[in] Name the reported IC50 value associated with the compound CCOc1ccccc1NC(=O)C1Cc2cc(OC)c(OC)cc2C1=O (centres undefined)
[out] 63.67

[in] What value of measured IC50 is listed for CCOc1ccc(NC(=O)C2Cc3cc(OC)c(OC)cc3C2=O)cc1 (centres undefined) ?
[out] 48.16

[in] Sample Cc1c(C)c2c(c(C)c1O)CCC(C)(C(=O)O)O2 (centres undefined) — what was its IC50?
[out] 20.87

[in] Would you mind telling me what IC50 value was observed for COc1cc2c(cc1OC)C(=O)C(C(=O)Nc1ccccc1Cl)C2 (centres undefined) ?
[out] 65.92

[in] Which IC50 is reported for this compound? COc1cc2c(cc1OC)C(=O)C(C(=O)Nc1ccccc1Br)C2 (centres undefined)
[out] 65.44

[in] GET /values?readout=IC50&item= COc1cc2c(cc1OC)C(=O)C(C(=O)Nc1cccc(Br)c1)C2 (centres undefined)
[out] 58.88

[in] What value of IC50 has been reported for the following compound? COc1ccccc1NC(=O)C1Cc2cc(OC)c(OC)cc2C1=O (centres undefined)
[out] 45.76

[in] Please report the recorded IC50 for CCc1cccc(NC(=O)C2Cc3cc(OC)c(OC)cc3C2=O)c1 (centres undefined) .
[out] 64.11

[in] Need IC50, item CCc1ccc(NC(=O)C2Cc3cc(OC)c(OC)cc3C2=O)cc1 (centres undefined)
[out] 76.15

[in] Param item = CCc1ccccc1NC(=O)C1Cc2cc(OC)c(OC)cc2C1=O (centres undefined) ; retrieve measured IC50.
[out] 55

[in] Look at this compound and give its reported IC50. COc1cc2c(cc1OC)C(=O)C(C(=O)Nc1cccc(C)c1)C2 (centres undefined)
[out] 55.83
